# System: Streptococcus sp.
# ASSAY INFO: In vitro antibacterial evaluation: minimum inhibitory concentration (MIC), broth dilution method
# Type: cell-based
# MEASUREMENT PARAMETERS: Streptococcus pyogenes (GC 4563); 18 hours at 35° C.
MEASURED ENDPOINT: MIC Streptococcus pyogenes (GC 4563) (µg/mL)
The reply should contain only the number, in µg/mL.

Use these answered entries as a reference point.
CC(c1ccccc1)C1NC(=O)CNC(=O)C(CO)NC(=O)C(C(O)C2CN(Cc3ccc(C(F)(F)F)cc3)C(=N)N2C2OC(CO)C(O)C(O)C2O)NC(=O)C(C(O)C2CNC(=N)N2)NC(=O)C(Cc2ccc(OC3OC(CO)C(OC4OC5COC6(OC5C(O)C4O)C4CC5CC(C4)CC6C5)C(O)C3O)cc2)NC1=O (stereo not drawn) [Example 226]
2
CC(c1ccccc1)C1NC(=O)CNC(=O)C(CO)NC(=O)C(CC2CNC(=N)N2C2OC(CO)C(O)C(O)C2O)NC(=O)C(CC2CNC(=N)N2)NC(=O)C(Cc2ccc(OC3OC(CO)C(OC4OC(CO)C(O)C(OCc5ccc(OCc6ccccc6)cc5)C4O)C(O)C3O)cc2)NC1=O (stereo not drawn) [Example 246b]
64
CCOc1cc(COCC2OC(OC3C(CO)OC(Oc4ccc(CC5NC(=O)C(C(C)c6ccccc6)NC(=O)CNC(=O)C(CO)NC(=O)C(C(O)C6CNC(=N)N6C6OC(CO)C(O)C(O)C6O)NC(=O)C(C(O)C6CNC(=N)N6)NC5=O)cc4)C(O)C3O)C(O)C(O)C2O)ccc1OC (stereo not drawn) [Example 238]
1
CC(c1ccccc1)C1NC(=O)CNC(=O)C(CO)NC(=O)C(C(O)C2CNC(=N)N2C2OC(CO)C(O)C(O)C2O)NC(=O)C(C(O)C2CNC(=N)N2)NC(=O)C(Cc2ccc(OC3OC(CO)C(OC4OC(COCc5cccs5)C(O)C(O)C4O)C(O)C3O)cc2)NC1=O (stereo not drawn) [Example 244]
2

Query (compound): Cc1ccc(Oc2cccc(C3OCC4OC(OC5C(CO)OC(Oc6ccc(CC7NC(=O)C(C(C)c8ccccc8)NC(=O)CNC(=O)C(CO)NC(=O)C(C(O)C8CNC(=N)N8C8OC(CO)C(O)C(O)C8O)NC(=O)C(C(O)C8CNC(=N)N8)NC7=O)cc6I)C(O)C5O)C(O)C(O)C4O3)c2)cc1 (stereo not drawn) [Example 197] ; field requested: MIC Streptococcus pyogenes (GC 4563) 16

Query (compound): N=C1NCC(C(O)C2NC(=O)C(CC3CCC(OC4OC(CO)C(OC5OC6COC7(OC6C(O)C5O)C5CC6CC(C5)CC7C6)C(O)C4O)CC3)NC(=O)C(CC3CCCCC3)NC(=O)CNC(=O)C(CO)NC(=O)C(C(O)C3CNC(=N)N3C3OC(CO)C(O)C(O)C3O)NC2=O)N1 (stereo not drawn) [Example 223] ; field requested: MIC Streptococcus pyogenes (GC 4563) 64

Query (compound): CC(c1ccccc1)C1NC(=O)CNC(=O)C(CO)NC(=O)C(CC2CNC(=N)N2C2OC(CO)C(O)C(O)C2O)NC(=O)C(CC2CNC(=N)N2)NC(=O)C(Cc2ccc(OC3OC(CO)C(OC4OC(CO)C(OCc5ccc(OCc6ccccc6)cc5)C(O)C4O)C(O)C3O)cc2)NC1=O (stereo not drawn) [Example 246a] ; field requested: MIC Streptococcus pyogenes (GC 4563) 0.5

Query (compound): CC(c1ccccc1)C1NC(=O)CNC(=O)C(CO)NC(=O)C(C(O)C2CNC(=N)N2C2OC(CO)C(O)C(O)C2O)NC(=O)C(C(O)C2CNC(=N)N2)NC(=O)C(Cc2ccc(OC3OC(CO)C(OC4OC5COC6(CCC(C(C)(C)C)CC6)OC5C(O)C4O)C(O)C3O)cc2)NC1=O (stereo not drawn) [Example 208] ; field requested: MIC Streptococcus pyogenes (GC 4563) 0.12

The reported numbers originate from patent US8247211B2.
